Biological target: T1, human LIV-1 (human, UniProt Q13433 29-755)
T1 construct: whole, on cells; also called H-LIV1
T1 sequence (looked up): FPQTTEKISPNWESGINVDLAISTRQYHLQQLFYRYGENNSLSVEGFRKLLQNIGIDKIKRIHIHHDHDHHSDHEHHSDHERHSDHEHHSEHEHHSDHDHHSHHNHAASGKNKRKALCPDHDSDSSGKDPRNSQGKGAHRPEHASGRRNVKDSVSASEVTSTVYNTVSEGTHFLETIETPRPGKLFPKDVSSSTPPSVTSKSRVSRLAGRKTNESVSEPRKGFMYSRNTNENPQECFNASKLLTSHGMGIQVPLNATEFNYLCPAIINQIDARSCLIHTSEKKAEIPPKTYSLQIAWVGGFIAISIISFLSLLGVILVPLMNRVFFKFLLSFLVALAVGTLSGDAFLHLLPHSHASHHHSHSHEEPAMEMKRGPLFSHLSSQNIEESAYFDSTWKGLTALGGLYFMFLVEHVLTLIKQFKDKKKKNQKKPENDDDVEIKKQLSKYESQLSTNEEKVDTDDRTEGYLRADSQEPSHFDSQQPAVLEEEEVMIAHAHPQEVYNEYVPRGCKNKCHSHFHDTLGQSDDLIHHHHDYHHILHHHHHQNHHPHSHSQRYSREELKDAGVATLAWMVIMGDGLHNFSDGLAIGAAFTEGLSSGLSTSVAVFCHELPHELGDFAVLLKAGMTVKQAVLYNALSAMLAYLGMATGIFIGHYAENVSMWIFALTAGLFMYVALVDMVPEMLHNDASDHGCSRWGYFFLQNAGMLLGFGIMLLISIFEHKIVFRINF
Assay: FACS, human LIV-1 cells
ENDPOINT_NAME: Top (MFI)

binder="290F10G10.p1.Z5 (antibody, V domains shown) VH: EVQLVQSGAEVKKPGASVKVSCKASGYTFTSYWIHWVRQAPGQGLEWMGTIYPGDADTRSTQKFKDRVTVTADKSTSTVYMELSSLRSEDTAVYYCARSLIHDDYDKYYFDYWGQGTTVTVSS VL: DIQMTQSPSSLSASVGDRVTITCKARQDINKYIAWYQQKPGKAPKLLIHYTSILQPGIPSRFSGSGSGRDYTFTISSLQPEDIATYYCLQYDYFFTFGGGTKVEIK" endpoint_name="Top (MFI)" endpoint_unit=MFI observed=7390
binder="290F10G10.p1.Z1 (antibody, V domains shown) VH: EVQLVQSGAEVKKPGASVKVSCKASGYTFTSYWIHWVRQAPGQGLEWMGTIYPGDADTRSTQKFKDRVTMTADTSTSTVYMELSSLRSEDTAVYYCARSLIHDDYDKYYFDYWGQGTTVTVSS VL: DIQMTQSPSSLSASVGDRVTITCKARQDINKYIAWYQQKPGKAPKLLIYYTSILQPGVPSRFSGSGSGRDYTFTISSLQPEDIATYYCLQYDYFFTFGGGTKVEIK" endpoint_name="Top (MFI)" endpoint_unit=MFI observed=7540
binder="290F10G10.p1.Z15 (antibody, V domains shown) VH: EVQLVQSGAEVKKPGASVKVSCKASGYTFTSYWIHWVRQAPGQGLEWIGTIYPGDADTRSTQKFKDKATVTADKSTSTVYMELSSLRSEDTAVYYCTRSLIHDDYDKYYFDYWGQGTTVTVSS VL: DIQMTQSPSSLSASVGDRVTITCKARQDINKYIAWYQHKPGKGPKLLIHYTSILQPGIPSRFSGSGSGRDYTFTISSLQPEDIATYYCLQYDYFFTFGGGTKVEIK" endpoint_name="Top (MFI)" endpoint_unit=MFI observed=7550
binder="290F10G10.p1.Z10 (antibody, V domains shown) VH: EVQLVQSGAEVKKPGASVKVSCKASGYTFTSYWIHWVRQAPGQGLEWMGTIYPGDADTRSTQKFKDRVTVTADKSTSTVYMELSSLRSEDTAVYYCTRSLIHDDYDKYYFDYWGQGTTVTVSS VL: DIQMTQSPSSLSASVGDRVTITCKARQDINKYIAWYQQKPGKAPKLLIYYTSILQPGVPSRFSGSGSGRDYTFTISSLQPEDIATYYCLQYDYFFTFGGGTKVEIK" endpoint_name="Top (MFI)" endpoint_unit=MFI observed=7290
binder="290F10G10.p1.Z11 (antibody, V domains shown) VH: EVQLVQSGAEVKKPGASVKVSCKASGYTFTSYWIHWVRQAPGQGLEWMGTIYPGDADTRSTQKFKDRVTVTADKSTSTVYMELSSLRSEDTAVYYCTRSLIHDDYDKYYFDYWGQGTTVTVSS VL: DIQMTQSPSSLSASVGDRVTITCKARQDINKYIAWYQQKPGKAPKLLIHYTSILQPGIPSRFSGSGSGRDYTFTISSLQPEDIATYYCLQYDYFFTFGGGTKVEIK" endpoint_name="Top (MFI)" endpoint_unit=MFI observed=7820
